# Subject of test: GP IIb/IIIa (Homo sapiens, UniProt P05106+P08514)
# Sequence (P08514 32-887 limits assumed): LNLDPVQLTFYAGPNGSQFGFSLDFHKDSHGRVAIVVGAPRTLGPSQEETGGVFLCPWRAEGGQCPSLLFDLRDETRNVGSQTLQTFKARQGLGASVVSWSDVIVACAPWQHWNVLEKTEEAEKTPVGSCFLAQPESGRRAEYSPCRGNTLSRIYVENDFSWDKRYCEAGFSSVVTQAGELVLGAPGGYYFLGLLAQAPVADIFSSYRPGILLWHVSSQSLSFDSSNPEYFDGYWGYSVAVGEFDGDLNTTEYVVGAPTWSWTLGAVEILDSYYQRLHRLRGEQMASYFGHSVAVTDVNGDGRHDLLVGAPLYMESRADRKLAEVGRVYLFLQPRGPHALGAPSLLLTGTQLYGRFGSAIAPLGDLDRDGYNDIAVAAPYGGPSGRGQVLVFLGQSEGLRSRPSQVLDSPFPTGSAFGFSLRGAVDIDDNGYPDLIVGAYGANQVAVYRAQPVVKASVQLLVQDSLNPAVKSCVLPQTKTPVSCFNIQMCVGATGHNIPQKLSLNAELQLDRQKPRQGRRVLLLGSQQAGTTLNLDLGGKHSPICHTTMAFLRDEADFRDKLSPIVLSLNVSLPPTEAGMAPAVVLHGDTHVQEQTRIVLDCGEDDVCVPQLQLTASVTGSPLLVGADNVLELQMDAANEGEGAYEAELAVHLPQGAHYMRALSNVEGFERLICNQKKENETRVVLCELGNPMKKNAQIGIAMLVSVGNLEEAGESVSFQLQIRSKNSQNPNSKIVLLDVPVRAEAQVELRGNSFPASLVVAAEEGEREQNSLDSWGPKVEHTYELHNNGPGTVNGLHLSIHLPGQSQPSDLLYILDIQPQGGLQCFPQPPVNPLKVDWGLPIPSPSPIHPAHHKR
# Sequence (P08514 891-1039 partner limits assumed): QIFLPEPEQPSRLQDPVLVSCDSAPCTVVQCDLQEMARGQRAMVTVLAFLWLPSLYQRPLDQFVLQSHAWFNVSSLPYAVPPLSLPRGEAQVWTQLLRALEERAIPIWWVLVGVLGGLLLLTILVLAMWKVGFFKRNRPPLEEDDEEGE
# Sequence (P05106 27-788): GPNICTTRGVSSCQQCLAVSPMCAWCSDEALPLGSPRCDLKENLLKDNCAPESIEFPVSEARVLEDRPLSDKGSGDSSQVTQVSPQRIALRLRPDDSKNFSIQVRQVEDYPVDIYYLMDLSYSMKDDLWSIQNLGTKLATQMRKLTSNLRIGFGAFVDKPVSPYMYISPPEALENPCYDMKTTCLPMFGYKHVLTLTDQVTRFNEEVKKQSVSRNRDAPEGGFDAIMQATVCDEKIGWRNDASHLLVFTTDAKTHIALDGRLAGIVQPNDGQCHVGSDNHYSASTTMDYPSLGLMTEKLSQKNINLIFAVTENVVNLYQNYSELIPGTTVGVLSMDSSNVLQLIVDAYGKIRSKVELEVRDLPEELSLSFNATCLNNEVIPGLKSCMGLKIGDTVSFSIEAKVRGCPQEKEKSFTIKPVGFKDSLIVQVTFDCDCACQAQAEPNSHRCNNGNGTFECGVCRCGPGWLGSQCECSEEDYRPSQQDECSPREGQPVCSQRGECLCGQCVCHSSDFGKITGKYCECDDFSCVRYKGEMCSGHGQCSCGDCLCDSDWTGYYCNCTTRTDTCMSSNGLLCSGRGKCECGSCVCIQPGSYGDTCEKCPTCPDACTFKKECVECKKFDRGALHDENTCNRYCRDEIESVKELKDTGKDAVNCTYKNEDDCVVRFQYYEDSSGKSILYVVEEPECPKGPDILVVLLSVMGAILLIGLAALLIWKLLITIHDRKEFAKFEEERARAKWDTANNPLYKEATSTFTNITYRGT
# Test name: In Vitro Solid Phase Purified GP IIb/IIIa Binding Assay (biotinylated fibrinogen)
# Stated conditions: biotinylated fibrinogen binding to immobilized purified GP IIb/IIIa; mean ± spread; read-out: αIIbβ3 IC50
Parameter: IC50 (µM)

Some solved entries appear below for comparison.
# Molecule, Subject of test, Quantity unit, IC50
records = [
    ("O=C(O)CC(CC1CCN(C(=O)CCc2ccc3c(n2)NCCC3)CC1)c1ccc2c(c1)CCO2 (centres unmarked) [Cpd 46]", "GP IIb/IIIa (Homo sapiens, UniProt P05106+P08514)", "µM", 13.6),
    ("O=C(O)CC(CC1CCN(C(=O)CCCc2ccc3c(n2)NCCC3)CC1)c1ccc2c(c1)OCO2 (centres unmarked) [Cpd 26]", "GP IIb/IIIa (Homo sapiens, UniProt P05106+P08514)", "µM", 5.92),
    ("Cc1ncc(C(CC(=O)O)CC2CCN(C(=O)CCc3ccc4c(n3)NCCC4)CC2)cn1 (centres unmarked) [Cpd 35]", "GP IIb/IIIa (Homo sapiens, UniProt P05106+P08514)", "µM", 0.965),
    ("O=C(O)CC(CC1CCN(C(=O)c2cccc(NC3=NCC(O)CN3)c2)CC1)c1ccc2c(c1)OCO2 (centres unmarked) [Cpd 27]", "GP IIb/IIIa (Homo sapiens, UniProt P05106+P08514)", "µM", 1.62),
    ("O=C(O)CC(CCC1CCN(C(=O)CCc2ccc3c(n2)NCCC3)CC1)c1ccc2c(c1)OCO2 (centres unmarked) [Cpd 20]", "GP IIb/IIIa (Homo sapiens, UniProt P05106+P08514)", "µM", 1.8),
    ("O=C(O)CC(c1cnc2ccccc2c1)C1CCN(C(=O)Cc2cccc(NC3=NCC(O)CN3)c2)CC1 (centres unmarked) [Cpd 3]", "GP IIb/IIIa (Homo sapiens, UniProt P05106+P08514)", "µM", 0.21),
]

(P) O=C(O)CC(CCC1CCN(C(=O)CCCNc2ccccn2)CC1)c1cnc2ccccc2c1 (centres unmarked) [Cpd 22]
(Q) O=C(O)CC(CC1CCN(C(=O)CCc2ccc3c(n2)NCCC3)CC1)c1cccnc1 (centres unmarked) [Cpd 45]
(R) O=C(O)CC(CCC1CCN(C(=O)c2cccc(NC3=NCC(O)CN3)c2)CC1)c1cnc2ccccc2c1 (centres unmarked) [Cpd 49]
(S) O=C(O)CC(CC1CCN(CCCc2ccc3c(n2)NCCC3)CC1)c1cccc(F)c1 (racemic) [Cpd 81]
INPUT: Please list these molecules in decreasing order of IC50. Field: ranking. Enter the labels in the order requested.
OUTPUT: S, Q, P, R
